TARGET_ENTITY: Sodium-dependent serotonin transporter (Rattus norvegicus)
ASSAY_COMMENT: Specific binding in rat hypothalamus at 10 min postinjection in vivo
Assay type: functional, organism-based
CONDITION_SUMMARY: tested as the 18F-labelled form
ASSAY_ENDPOINT: Specific binding (%ID/g)

{"SUBSTANCE_SMILES": "CN(C)Cc1ccccc1Sc1ccc(CCF)cc1N", "Specific binding (%ID/g)": 0.96}
{"SUBSTANCE_SMILES": "CN(C)Cc1ccccc1Sc1ccc(F)cc1N", "Specific binding (%ID/g)": 0.89}

1 = CN(C)Cc1ccccc1Sc1ccc(CCCF)cc1N
2 = CN(C)Cc1ccccc1Sc1ccc(CF)cc1N
Task: Compare 1 and 2 by numeric Specific binding and name the larger one. // output: label of the selected item
Output: 2

Recorded values, source ChEMBL document CHEMBL1145212.
